Entries and their GIRK-cAMP bias factor (BF) values follow.
target: hCB2R (Homo sapiens, UniProt P34972); set-up: expressed in transfected cells; host or cells: Flp-In-293 (Invitrogen #R750-07), pcDNA5/FRT; settings: hCB2R
Sequence (P34972 whole entry): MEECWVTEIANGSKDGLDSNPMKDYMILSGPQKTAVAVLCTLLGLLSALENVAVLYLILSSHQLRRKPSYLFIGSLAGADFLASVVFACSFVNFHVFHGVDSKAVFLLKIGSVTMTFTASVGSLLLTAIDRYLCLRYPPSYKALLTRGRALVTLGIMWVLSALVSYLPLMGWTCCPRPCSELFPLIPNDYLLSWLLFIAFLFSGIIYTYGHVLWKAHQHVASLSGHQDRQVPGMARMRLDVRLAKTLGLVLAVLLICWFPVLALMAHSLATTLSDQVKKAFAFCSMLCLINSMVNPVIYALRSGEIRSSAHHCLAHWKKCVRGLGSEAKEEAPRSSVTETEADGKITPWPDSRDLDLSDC
ENDPOINT NAME: GIRK-cAMP bias factor (BF)

[[record]]
compound = "CCCCC/C=C\\C/C=C\\C/C=C\\C/C=C\\CCCC(=O)OC(CO)CO"
endpoint_name = "GIRK-cAMP bias factor (BF)"
observed = 178.65

[[record]]
compound = "CCCCCCC(C)(C)c1cc(OC)c([C@@H]2C=C(CO)[C@@H]3C[C@H]2C3(C)C)c(OC)c1"
endpoint_name = "GIRK-cAMP bias factor (BF)"
observed = 4.33

[[record]]
compound = "CCCCCCC(C)(C)c1cc(OC)c(C2=C[C@H]3CC[C@]2(CO)C3(C)C)c(OC)c1"
endpoint_name = "GIRK-cAMP bias factor (BF)"
observed = 2.42

[[record]]
compound = "CCCCC/C=C\\C/C=C\\C/C=C\\C/C=C\\CCCC(=O)NCCO [Anandamide, N-arachidonoylethanolamine]"
endpoint_name = "GIRK-cAMP bias factor (BF)"
observed = 26.36


###

target: Rat recombinant TRPV4 (Rattus norvegicus, UniProt Q9ERZ8); construct: expressed in transfected cells; host or cells: HEK293 (TRPV4-HEK-293, gift from HB Bradshaw, Indiana University); test: cell-based; assay type: cell-based
Sequence (Q9ERZ8 whole entry): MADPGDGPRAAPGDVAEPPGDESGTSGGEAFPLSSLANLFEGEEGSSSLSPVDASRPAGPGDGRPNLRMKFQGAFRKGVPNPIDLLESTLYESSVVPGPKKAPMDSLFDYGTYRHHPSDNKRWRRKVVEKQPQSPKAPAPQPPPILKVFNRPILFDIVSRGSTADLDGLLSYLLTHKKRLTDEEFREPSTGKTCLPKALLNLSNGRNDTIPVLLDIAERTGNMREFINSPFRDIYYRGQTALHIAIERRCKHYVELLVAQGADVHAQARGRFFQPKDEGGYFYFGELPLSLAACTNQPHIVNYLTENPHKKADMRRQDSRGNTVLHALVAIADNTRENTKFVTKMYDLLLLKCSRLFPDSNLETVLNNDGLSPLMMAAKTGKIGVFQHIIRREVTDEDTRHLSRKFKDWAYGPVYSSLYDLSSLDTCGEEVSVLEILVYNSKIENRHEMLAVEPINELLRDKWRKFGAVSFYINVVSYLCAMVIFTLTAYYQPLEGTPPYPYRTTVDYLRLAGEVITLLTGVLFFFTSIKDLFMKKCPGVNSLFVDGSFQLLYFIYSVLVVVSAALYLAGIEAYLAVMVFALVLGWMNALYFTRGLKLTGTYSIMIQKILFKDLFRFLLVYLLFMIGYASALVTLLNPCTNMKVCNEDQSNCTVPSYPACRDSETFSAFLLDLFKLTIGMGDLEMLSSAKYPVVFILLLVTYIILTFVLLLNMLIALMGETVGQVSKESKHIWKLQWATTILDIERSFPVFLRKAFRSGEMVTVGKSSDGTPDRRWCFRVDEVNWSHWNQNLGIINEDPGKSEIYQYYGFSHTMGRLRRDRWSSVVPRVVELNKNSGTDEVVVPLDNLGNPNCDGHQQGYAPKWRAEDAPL
ENDPOINT NAME: TRPV4 Efficacy (% ionomycin 4μM)

[[record]]
compound = "Cc1c(C(=O)NN2CCCCC2)nn(-c2ccc(Cl)cc2Cl)c1-c1ccc(I)cc1"
observed = "< 10%"

[[record]]
compound = "CCCCCCCCCC(=O)O[C@@H]1[C@@H](C)[C@@]2(O)[C@@H](C=C(CO)C[C@@]3(O)C(=O)C(C)=C[C@@H]23)[C@@H]2C(C)(C)[C@]12OC(=O)CCCCCCCCC [4α-PDD, 4α-phorbol 12,13-didecanoate]"
observed = "51.9±1.7%"

[[record]]
compound = "CCCCCCC(C)(C)c1cc(OC)c(C2=C[C@H]3CC[C@]2(CO)C3(C)C)c(OC)c1"
observed = "< 10%"


###

experiment: in vitro; conditions: both, human, microsomes, pH 7.4
# binarize microsomal CLint: threshold 20 µL/min/mg inclusive, high side 1, low side 0

[[record]]
compound = "CCCCCCC(C)(C)c1cc(O)c2c(c1)OC(C)(C)[C@@H]1CC=C(CO)C[C@@H]21"
assigned_category = 1

[[record]]
compound = "CCCCC/C=C\\C/C=C\\C/C=C\\C/C=C\\CCCC(=O)OC(CO)CO"
assigned_category = 0

[[record]]
compound = "CCCCCCC(C)(C)c1ccc([C@@H]2C[C@H](O)CC[C@H]2CCCO)c(O)c1"
assigned_category = 1

[[record]]
compound = "CCCCC/C=C\\C/C=C\\C/C=C\\C/C=C\\CCCC(=O)NCCO [Anandamide, N-arachidonoylethanolamine]"
assigned_category = 1


###

Biological target: hDAGL-α (Homo sapiens)
Construct: expressed in transfected cells; host or cells: HEK293T (transient), membrane preparation
Sequence (Q9Y4D2 1-1042): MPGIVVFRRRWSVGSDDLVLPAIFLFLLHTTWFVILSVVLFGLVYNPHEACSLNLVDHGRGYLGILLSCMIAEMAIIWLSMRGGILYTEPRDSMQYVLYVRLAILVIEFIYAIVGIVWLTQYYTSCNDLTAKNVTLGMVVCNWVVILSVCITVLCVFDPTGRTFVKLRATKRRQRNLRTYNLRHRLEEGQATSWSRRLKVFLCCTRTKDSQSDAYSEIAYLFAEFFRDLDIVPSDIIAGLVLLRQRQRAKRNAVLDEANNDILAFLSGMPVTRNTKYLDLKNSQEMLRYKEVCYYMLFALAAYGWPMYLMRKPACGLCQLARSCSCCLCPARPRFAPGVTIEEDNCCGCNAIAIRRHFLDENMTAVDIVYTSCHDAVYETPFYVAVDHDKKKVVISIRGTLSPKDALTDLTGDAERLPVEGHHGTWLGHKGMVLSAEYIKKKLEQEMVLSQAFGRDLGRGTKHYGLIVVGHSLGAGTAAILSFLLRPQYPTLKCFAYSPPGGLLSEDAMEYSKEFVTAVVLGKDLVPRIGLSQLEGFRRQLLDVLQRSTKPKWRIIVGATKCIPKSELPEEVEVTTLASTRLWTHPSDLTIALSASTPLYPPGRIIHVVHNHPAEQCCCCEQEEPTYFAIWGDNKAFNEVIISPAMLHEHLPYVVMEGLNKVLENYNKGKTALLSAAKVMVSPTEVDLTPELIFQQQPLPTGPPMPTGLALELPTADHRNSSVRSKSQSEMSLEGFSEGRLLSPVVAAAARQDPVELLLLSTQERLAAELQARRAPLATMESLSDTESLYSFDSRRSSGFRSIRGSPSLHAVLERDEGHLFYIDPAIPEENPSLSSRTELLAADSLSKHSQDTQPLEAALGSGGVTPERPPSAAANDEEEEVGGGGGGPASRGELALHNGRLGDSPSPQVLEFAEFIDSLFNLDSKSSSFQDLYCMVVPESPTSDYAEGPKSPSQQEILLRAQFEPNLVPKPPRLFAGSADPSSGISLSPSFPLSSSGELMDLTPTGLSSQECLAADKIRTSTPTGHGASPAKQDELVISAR
Test: Biochemical DAGLα activity assay
Conditions: read-out: DAGL % inhibition at 10 µM ± SD
ENDPOINT NAME: inhibition at 10 µM (%)

[[record]]
compound = "CCCCCCC(C)(C)c1cc(OC)c([C@@H]2C=C(CO)[C@@H]3C[C@H]2C3(C)C)c(OC)c1 [HU308]"
observed = 42

[[record]]
compound = "CCCCC/C=C\\C/C=C\\C/C=C\\C/C=C\\CCCC(=O)NCCO [Anandamide, N-arachidonoylethanolamine]"
observed = 32

[[record]]
compound = "CCCCCCC(C)(C)c1ccc([C@@H]2C[C@H](O)CC[C@H]2CCCO)c(O)c1 [CP55940]"
observed = 20

[[record]]
compound = "Cc1c(C(=O)NN2CCCCC2)nn(-c2ccc(Cl)cc2Cl)c1-c1ccc(Cl)cc1 [SR141716A]"
observed = 20

[[record]]
compound = "CCCCC/C=C\\C/C=C\\C/C=C\\C/C=C\\CCCC(=O)OC(CO)CO [2-AG, 2-arachidonoyl glycerol]"
observed = -12


###

biological target: hCB2R (Homo sapiens); parameters: expressed in transfected cells; host or cells: Flp-In-293 (Invitrogen #R750-07), pcDNA5/FRT; conditions: hCB2R, relative effectiveness
ENDPOINT NAME: RE GIRK

[[record]]
compound = "CN1CCCCC1Cn1cc(C(=O)c2cc([N+](=O)[O-])ccc2I)c2ccccc21 (racemic) [(rac)-AM1241]"
endpoint_name = "RE GIRK"
observed = 0.004

[[record]]
compound = "CCCCC/C=C\\C/C=C\\C/C=C\\C/C=C\\CCCC(=O)OC(CO)CO [2-AG, 2-arachidonoyl glycerol]"
endpoint_name = "RE GIRK"
observed = 0.03

[[record]]
compound = "CCCCC/C=C\\C/C=C\\C/C=C\\C/C=C\\CCCC(=O)NCCO [Anandamide, N-arachidonoylethanolamine]"
endpoint_name = "RE GIRK"
observed = 0.005


###

target: hCB2R (Homo sapiens, UniProt P34972); design: expressed in transfected cells; host or cells: Flp-In-293 (Invitrogen #R750-07), pcDNA5/FRT; details: hCB2R, relative effectiveness
ENDPOINT NAME: RE pERK

[[record]]
molecule = "CCCCCCC(C)(C)c1cc(OC)c(C2=C[C@H]3CC[C@]2(CO)C3(C)C)c(OC)c1"
endpoint_name = "RE pERK"
observed = 0.01

[[record]]
molecule = "CCCCC/C=C\\C/C=C\\C/C=C\\C/C=C\\CCCC(=O)NCCO [Anandamide, N-arachidonoylethanolamine]"
endpoint_name = "RE pERK"
observed = 0.001

[[record]]
molecule = "CN1CCCC[C@@H]1Cn1cc(C(=O)c2cc([N+](=O)[O-])ccc2I)c2ccccc21 [(R)-AM1241]"
endpoint_name = "RE pERK"
observed = 0.12

[[record]]
molecule = "CCCCC/C=C\\C/C=C\\C/C=C\\C/C=C\\CCCC(=O)OC(CO)CO"
endpoint_name = "RE pERK"
observed = 0.002

[[record]]
molecule = "CN1CCCC[C@H]1Cn1cc(C(=O)c2cc([N+](=O)[O-])ccc2I)c2ccccc21 [(S)-AM1241]"
endpoint_name = "RE pERK"
observed = 0.03

[[record]]
molecule = "CCCCCCC(C)(C)c1cc(OC)c([C@@H]2C=C(CO)[C@@H]3C[C@H]2C3(C)C)c(OC)c1"
endpoint_name = "RE pERK"
observed = 0.03

[[record]]
molecule = "CN1CCCCC1Cn1cc(C(=O)c2cc([N+](=O)[O-])ccc2I)c2ccccc21 (racemic) [(rac)-AM1241]"
endpoint_name = "RE pERK"
observed = 0.43

